All values here come from patent US20240150440A1.

biological target: SARS-COV-2 Wuhan Reference RBD (SARS-CoV-2, UniProt P0DTC2 319-541); test: ELISA, RBD coated
pEC50: −log10 of the molar value.
Parameter: pEC50. Scope: all listed entries.

binder	pEC50
PP904 MBP-5HVZ-R5b-C5-H6 (VHH, Form: Dimer) VHH: QVQLVESGGGLVQPGGSLRLSCAASGSPFKTQTVHWFRQAPGKGREWVASITSGSGTQYMDSVKGRFTISRDNAKNTVYLQMNSLKPEDTAVYYCAAANDGYGVDWGQGTQVTVSS	8.97
PP907 MBP-5HVZ-S1b-E11-H6 (VHH, Form: Dimer) VHH: QVQLVESGGGLVQPGGSLRLSCAASGSYASIASMHWFRQAPGKEREFVAGVTSGGSTNYGDSVKGRFTISRDNAKNTVYLQMNSLKPEDTAVYYCNALAGANYESQWEEYNYWGQGTQVTVSS	8.52
PP1105 MBP-5HVZ-PAPA-RN-20-H6 (VHH, Form: Dimer) VHH: QVQLVESGGGLVQPGGSLRLSCAASGNYFEINKMHWFRQAPGKQREFVATIGSGGSTAYADSVKGRFTISRDNAKNTVYLQMNSLKPEDTAVYYCNALIYLADRRDGYYSYDYWGQGTQVTVSS	8.91
PP916 MBP-5HVZ-S3b-A8-H6 (VHH, Form: Dimer) VHH: QVQLVESGGGLVQPGGSLRLSCAASGSIISRVKVHWFRQAPGKSREWVAGIDSGTASYYSDSVKGRFTISRDNAKNTVYLQMNSLKPEDTAVYYCAAENRGYGVDWGQGTQVTVSS	8.92
PP1114 MBP-5HVZ-PAPA-RN-30-H6 (VHH, Form: Dimer) VHH: QVQLVESGGGLVQPGGSLRLSCAASGIPASYLNMHWFRQAPGKQREWVAGAGGTNSNYYQDSVKGRFTISRDNAKNTVYLQMNSLKPEDTAVYYCAALDGAESYDYVYPVWGQGTQVTVSS	8.94
PP1153 MBP-5HVZ-PAPA-R5d-D4-H6 (VHH, Form: Dimer) VHH: QVQLVESGGGLVQPGGSLRLSCAASGSDFTINAMHWFRQAPGKQREFVATITSTSSTAYRDSVKGRFTISRDNAKNTVYLQMNSLKPEDTAVYYCAAFAVRDADTAGWTARDYWGQGTQVTVSS	8.91
PP903 MBP-5HVZ-R1i-A11-H6 (VHH, Form: Dimer) VHH: QVQLVESGGGLVQPGGSLRLSCAASGSILQINAIHWFRQAPGKQREEVAAITSGGSTGYADSVKGRFTISRDNAKNTVYLQMNSLKPEDTAVYYCAATSTRGGLDSDYWGQGTQVTVSS	9.57
PP1150 MBP-5HVZ-PAPA-R5b-G1-H6 (VHH, Form: Dimer) VHH: QVQLVESGGGLVQPGGSLRLSCAASGSIGQIVLVHWFRQAPGKQRELVAGITSPSSTYYADSVKGRFTISRDNAKNTVYLQMNSLKPEDTAVYYCNTELEGKTQGFTGKTVWYDYWGQGTQVTVSS	9.19
PP915 MBP-5HVZ-S3b-A7-H6 (VHH, Form: Dimer) VHH: QVQLVESGGGLVQPGGSLRLSCAASGSIASINAIHWVRQAPGKQREEVAAITSGGSTGYADSVKGRFTISRDNAKNTVYLQMNSLKPEDTAVYYCAAQPGQSYAVWGQGTQVTVSS	8.98
PP1101 MBP-5HVZ-PAPA-RN-16-H6 (VHH, Form: Dimer) VHH: QVQLVESGGGLVQPGGSLRLSCAASGADFSSNAMHWFRQAPGKAREFVASIDSDKSGYYADSVKGRFTISRDNAKNTVYLQMNSLKPEDTAVYYCNAYSGTDNYGYDYWGQGTQVTVSS	8.81
PP1100 MBP-5HVZ-PAPA-RN-14-H6 (VHH, Form: Dimer) VHH: QVQLVESGGGLVQPGGSLRLSCAASGENFSGNLVHWFRQAPGKAREGVATVTSTGSGYYADSVKGRFTISRDNAKNTVYLQMNSLKPEDTAVYYCAAKHQKGEIPYYDWGQGTQVTVSS	9.51
PP1111 MBP-5HVZ-PAPA-RN-27-H6 (VHH, Form: Dimer) VHH: QVQLVESGGGLVQPGGSLRLSCAASGPQFSSNAVSWFRQAPGKEREWVAGITSGGSTDYADSVKGRFTISRDNAKNTVYLQMNSLKPEDTAVYYCTAPSVSDADRRTRDYWGQGTQVTVSS	9.48
PP912 MBP-5HVZ-S2b-G8-H6 (VHH, Form: Dimer) VHH: QVQLVESGGGLVQPGGSLRLSCAASGSIQSYEAMHWFRQAPGKAREWVAVITWGDSTQYGDSVKGRFTISRDNAKNTVYLQMNSLKPEDTAVYYCAADVRQGYSSWGQGTQVTVSS	8.63
PP1154 MBP-5HVZ-PAPA-R5d-G1-H6 (VHH, Form: Dimer) VHH: QVQLVESGGGLVQPGGSLRLSCAASGSIFGINDVHWFRQAPGKEREFVATITNGLSARYKDSVKGRFTISRDNAKNTVYLQMNSLKPEDTAVYYCAAQVYITTYELYDYWGQGTQVTVSS	8.62
PP1098 MBP-5HVZ-PAPA-RN-9-H6 (VHH) VHH: QVQLVESGGGLVQPGGSLRLSCAASGLRFAMTEMAWFRQAPGKQREFVALITEGGSGSYGDSVKGRFTISRDNAKNTVYLQMNSLKPEDTAVYYCAALHYTEGANTESATTFDYWGQGTQVTVSS	9.08
